assay: Plasma stability assay; assay type: in vitro ADME; details: male, SD, pH 7.4; rat plasma, 37 °C, time point 0 min
ENDPOINT LABEL: remaining at 0 h

Exam item: In one line, give reported remaining at 0 h of the entry O=c1ccc2ccc(OCc3cn([C@@H]4O[C@H](CO)[C@@H](O)[C@H](O)[C@H]4O)nn3)cc2o1 [Compound 10a] .
Marked response: 100%

----------
biological target: hCA IX (Homo sapiens); experiment: CA inhibition by the esterase assay, hCA IX; details: human recombinant enzyme, esterase assay, 4-nitrophenylacetate as substrate
ENDPOINT LABEL: IC50 (nM)
Give just the numeric value; nM need not be written.

Exam item: # return IC50 of N[C@@H]1[C@@H](O)[C@H](O)[C@@H](CO)O[C@H]1n1cc(COc2ccc3ccc(=O)oc3c2)nn1 [Compound 10d] (system: hCA IX (Homo sapiens))
Marked response: 57

Exam item: # return IC50 of Cc1cc(=O)oc2cc(OCc3cn([C@@H]4O[C@H](CO)[C@@H](O)[C@H](O)[C@H]4O)nn3)ccc12 [Compound 10i] (system: hCA IX (Homo sapiens))
Marked response: 84

Exam item: # return IC50 of Cc1cc(=O)oc2cc(OCc3cn([C@@H]4OC[C@@H](O)[C@H](O)[C@H]4O)nn3)ccc12 [Compound 10m] (system: hCA IX (Homo sapiens))
Marked response: 67

Exam item: # return IC50 of Cc1cc(=O)oc2cc(O)ccc12 [4-Methylumbelliferone, 4-methyl-7-hydroxy coumarin, reference compound] (system: hCA IX (Homo sapiens))
Marked response: 600

Exam item: # return IC50 of O=c1ccc2ccc(OCc3cn([C@@H]4O[C@H](CO)[C@@H](O)[C@H]4O)nn3)cc2o1 [Compound 10h] (system: hCA IX (Homo sapiens))
Marked response: 132

Exam item: # return IC50 of Cc1cc(=O)oc2cc(OCc3cn([C@@H]4OC[C@H](O)[C@H](O)[C@H]4O)nn3)ccc12 [Compound 10n] (system: hCA IX (Homo sapiens))
Marked response: 45

Exam item: # return IC50 of Cc1cc(=O)oc2cc(OCc3cn([C@@H]4O[C@H](CO)[C@@H](O)[C@H](O)[C@H]4N)nn3)ccc12 [Compound 10l] (system: hCA IX (Homo sapiens))
Marked response: 32

Exam item: # return IC50 of O=c1ccc2ccc(OCc3cn([C@@H]4O[C@H](CO)[C@@H](O)[C@H](O)[C@@H]4O)nn3)cc2o1 [Compound 10c] (system: hCA IX (Homo sapiens))
Marked response: 15

Exam item: # return IC50 of O=c1ccc2ccc(OCc3cn([C@@H]4OC[C@H](O)[C@H](O)[C@H]4O)nn3)cc2o1 [Compound 10f] (system: hCA IX (Homo sapiens))
Marked response: 42

Exam item: # return IC50 of Cc1cc(=O)oc2cc(OCc3cn([C@@H]4O[C@H](CO)[C@H](O)[C@H](O)[C@H]4O)nn3)ccc12 [Compound 10j] (system: hCA IX (Homo sapiens))
Marked response: 98

Exam item: # return IC50 of O=c1ccc2ccc(OCc3cn([C@@H]4OC[C@@H](O)[C@H](O)[C@H]4O)nn3)cc2o1 [Compound 10e] (system: hCA IX (Homo sapiens))
Marked response: 61

Exam item: # return IC50 of O=c1ccc2ccc(OCc3cn([C@@H]4O[C@H](CO)[C@H](O)[C@H](O)[C@H]4O)nn3)cc2o1 [Compound 10b] (system: hCA IX (Homo sapiens))
Marked response: 74

Exam item: # return IC50 of Cc1cc(=O)oc2cc(OCc3cn([C@@H]4O[C@H](CO)[C@@H](O)[C@H](O)[C@@H]4O)nn3)ccc12 [Compound 10k] (system: hCA IX (Homo sapiens))
Marked response: 42

Exam item: # return IC50 of Cc1cc(=O)oc2cc(OCc3cn([C@H]4O[C@@H](C)[C@H](O)[C@@H](O)[C@H]4O)nn3)ccc12 [Compound 10o] (system: hCA IX (Homo sapiens))
Marked response: 96
